Data provenance is ChEMBL document CHEMBL4513216.

protocolDetails: Toxicity liver stage against HepG2, at 10uM
Type: cell-based
Set-up: test concentration 10 uM, cell line HepG2-A16-CD81EGFP
studyConditions: human, HepG2-A16-CD81EGFP cells; read-out: INHIBITION
For each entry below, report its cytotoxicity at 10 µM value.
Respond numerically; units are % and should not be typed.

## Task Can you look up the measured cytotoxicity at 10 µM of `Cc1ccc(S(=O)(=O)N2CCn3nc(C)nc3C2)c(Cl)c1` for me?
## Result 5.09

## Task Can you look up the measured cytotoxicity at 10 µM of CC(=O)N1CCC(C(=O)N2CCCC(Cc3cccc(C)n3)C2)CC1 (configuration not stated) for me?
## Result -18.6

## Task Could you share which cytotoxicity at 10 µM value was measured for CS(=O)(=O)N1CCOCC2(CN(Cc3nccs3)CCO2)C1 (configuration not stated) ?
## Result 7.49

## Task Value lookup for cytotoxicity at 10 µM; key = CN(Cc1cnn(C)c1)C(=O)C(c1ccccc1)N1CCSCC1 (configuration not stated)
## Result 5.21

## Task Item `Cc1ccsc1[C@@H]1CCN(C(=O)Cc2ccc(O)cc2)C[C@H]1O` has what recorded cytotoxicity at 10 µM?
## Result -2.59

## Task Any idea what its cytotoxicity at 10 µM is? The molecule is C=c1ccoc1=C1NN=C(CNCC2CCCN2c2cccnn2)O1 (configuration not stated)
## Result -13.7

## Task Could you tell me which cytotoxicity at 10 µM is on file for COCC1CN(CC2CC2)Cc2nccn2C1 (configuration not stated) ?
## Result -76

## Task Tell me the measured cytotoxicity at 10 µM of `Cc1noc(C(C)C)c1C(=O)NCCN1CCOCC1` , please.
## Result -8.73

## Task Form field: reported cytotoxicity at 10 µM of O=C(C1CCCc2[nH]ncc21)N1CCCCCC1 (configuration not stated)
## Result 4.65

## Task Data request, read-out cytotoxicity at 10 µM, for CC(C)(C)c1n[nH]c(C2CN(C(=O)c3csnn3)CCO2)n1 (configuration not stated)
## Result -2.44

## Task Dear colleague, I am looking for the recorded cytotoxicity at 10 µM of the following molecule: `CC(C)Cc1cc(C(=O)NC(C)(C)c2nnc(N)s2)n(C)n1`
## Result 0.91

## Task Report cytotoxicity at 10 µM for `Cc1cccc2nc(CN3CCC(N4CCN(C)C4=O)CC3)cn12` please.
## Result -0.337

## Task Please look up its cytotoxicity at 10 µM: `COc1ccc(OC)c(CN(C)c2nc3c(cnn3C)c(=O)[nH]2)c1`
## Result 59.5

## Task // returns reported cytotoxicity at 10 µM for input `Cc1cc(NCc2ccc(N3CCNC(=O)C3)cc2)nc(C)n1`
## Result -4.99

## Task # query: cytotoxicity at 10 µM of entry `Cn1nc(CNC(=O)c2ccc3c(c2)OCO3)c2c1CCOC2`
## Result -1.82

## Task Quick one: cytotoxicity at 10 µM of `O=C(c1cocn1)N1C[C@@H]2CN(CC3CC3)CCO[C@@H]2C1` ?
## Result -2.29

## Task Which cytotoxicity at 10 µM value is on record for `CCOc1cccc(C(=O)N2CCN(c3nccc(OC)n3)CC2)c1` ?
## Result 5.41

## Task Which value of cytotoxicity at 10 µM has been reported for CN(Cc1ccsc1)Cc1ccc(C2CCCCO2)o1 (configuration not stated) in the records?
## Result -2.11

## Task If you can, please state the reported cytotoxicity at 10 µM value of `Fc1cccc(CN2CCC[C@H](Cn3nnc(-c4ccccn4)n3)C2)c1` .
## Result 3.44

## Task // cytotoxicity at 10 µM lookup, key: `Cc1cc(C(=O)N2CC[C@H](OCC3CC3)[C@@H]2Cc2cccnc2)no1`
## Result -6.44

## Task Item `CCN(Cc1cccs1)C(=O)c1ccc(=O)n(C)c1` has what recorded cytotoxicity at 10 µM?
## Result -9.56

## Task So what's the measured cytotoxicity at 10 µM for this one? O=C1NCCCCC1NC(=O)N1CCCc2ccccc21 (configuration not stated)
## Result -3.49

## Task Reported cytotoxicity at 10 µM, molecule Cc1nc(C)n(C2CCCN(C(=O)c3cn4c(C)cccc4n3)C2)n1 (configuration not stated) : ____
## Result -7.72

## Task Give its cytotoxicity at 10 µM value. Item: NC(=O)c1ccc(C2CN(Cc3ccc(F)cc3)CCO2)nc1 (configuration not stated)
## Result 18.6

## Task Consider the molecule Cc1nn(C)c(C)c1C1CCCN1Cc1nc(N)c2ccccc2n1 (configuration not stated) and give its measured cytotoxicity at 10 µM.
## Result -16

## Task Request the reported cytotoxicity at 10 µM associated with `Cc1cc(C(=O)Nc2cnn(CC(F)(F)F)c2)nc(N2CCOCC2)n1`
## Result -2.02

## Task # query: cytotoxicity at 10 µM of entry `O=C(NCCc1nnc2n1CCC2)NCC1(c2ccccc2F)CC1`
## Result 0.833

## Task Given `CCN(C(=O)Cc1ccc(NC(=O)NC2CC2)cc1)c1ccccc1` , state its recorded cytotoxicity at 10 µM.
## Result 7.84

## Task What value of cytotoxicity at 10 µM has been reported for the following molecule? Cc1nn(C)c(N2CCOCC2)c1CNC(C)c1cccs1 (configuration not stated)
## Result -1.47

## Task Given the entry `CN(C)C(=O)[C@H]1C[C@H]2CN(S(=O)(=O)Cc3ccccc3)C[C@@H]1O2` , report its measured cytotoxicity at 10 µM.
## Result 4.81

## Task State the recorded cytotoxicity at 10 µM for this entry: `COc1ccc(CN2C[C@@H]3OCCN(c4ncccn4)[C@@H]3C2)cc1`
## Result 4.71

## Task Query: cytotoxicity at 10 µM; subject: `O=C(CNC1(c2ccc(Cl)cc2)CCOCC1)NC1CCCC1`
## Result 2.32

## Task Which measured cytotoxicity at 10 µM value corresponds to O=C1CCC(C(=O)Nc2ccc(=O)n(Cc3ccc(Cl)c(Cl)c3)c2)N1 (configuration not stated) ?
## Result -8.47

## Task What value of cytotoxicity at 10 µM has been reported for the following molecule? COc1ccc(C(C)=O)cc1CN1CCn2cccc2C1C (configuration not stated)
## Result -6.62

## Task So what's the measured cytotoxicity at 10 µM for this one? O=C(c1ccc(OCC2CC2)nc1)N1CCCC(n2ccnc2)C1 (configuration not stated)
## Result -9.16

## Task Entry `CCCc1nc(C)c(C(=O)NS(=O)(=O)c2ccc(C#N)cc2)s1` : reported cytotoxicity at 10 µM = ?
## Result -12

## Task If you can, please state the reported cytotoxicity at 10 µM value of `Cc1cccc(CN2C(=O)CCC23CCN(C(=O)c2ccco2)CC3)n1` .
## Result 4.17

## Task What cytotoxicity at 10 µM value was documented for this molecule, `CC(=O)c1cccc(NC(=O)Cn2cnc(-c3cccs3)cc2=O)c1` ?
## Result -4.44

## Task Would you kindly share the measured cytotoxicity at 10 µM for `CCN(CC)C(=O)[C@@H]1C[C@@H](n2cc(-c3cccc(OC)c3)nn2)CN1` ?
## Result -5.98

## Task Return reported cytotoxicity at 10 µM; argument: `COc1cc(NC(=O)N(C)CCC2CC2)ncn1`
## Result -1.3

## Task Quick one: cytotoxicity at 10 µM of Cc1ccsc1C(Cc1ccccc1)NC(=O)CSCC(N)=O (configuration not stated) ?
## Result 8.13

## Task Quick one: cytotoxicity at 10 µM for CCc1nc2n(n1)CC(NCc1nc(-c3ccccn3)no1)CC2 (configuration not stated) ?
## Result -3.45

## Task Data request, read-out cytotoxicity at 10 µM, for `Cc1cnc(N2CC3(CCN(S(=O)(=O)C4CC4)C3)C2)nc1`
## Result -109

## Task Suppose we examine the molecule `O=C(N1CCCC1)N1CCc2onc(COc3cccnc3)c2C1` ; what cytotoxicity at 10 µM value has been reported?
## Result -75.6

## Task Please look up its cytotoxicity at 10 µM: `Cc1oncc1C(=O)N1CC[C@H]2[C@H]1CCN2S(C)(=O)=O`
## Result -99.4

## Task Quick one: cytotoxicity at 10 µM of CCC(=O)NCC(=O)NCC1CCN(c2cc(Cl)ccc2C)C1 (configuration not stated) ?
## Result -13.2

## Task Fill in the blank: the reported cytotoxicity at 10 µM of O=C(NCC(O)c1ccc(Cl)s1)c1ccoc1 (configuration not stated) is ____.
## Result -3.36

====

protocolDetails: Toxicity liver stage against HepG2, at 10uM
Format: cell-based
Design: test concentration 10 uM, cell line HepG2-A16-CD81EGFP
studyConditions: human, HepG2-A16-CD81EGFP cells; read-out: INHIBITION
observedProperty: cytotoxicity at 10 µM (%)
# output: bare number, implied unit %

## Task What does the data say about its cytotoxicity at 10 µM? Entry: `CC(=O)N1CCC2(CC1)CN(C(=O)c1cccc3[nH]ccc13)C2`
## Result -121

## Task I am curious: what cytotoxicity at 10 µM value has been reported for `CCCOCC(=O)NS(=O)(=O)c1ccc2c(c1)OCCCO2` ?
## Result -5.67

## Task If you can, please state the reported cytotoxicity at 10 µM value of `Cn1cc(CN2CC3(CCN(Cc4ccsc4)C3)C2)cn1` .
## Result -0.182

## Task So what's the measured cytotoxicity at 10 µM for this one? `CC(=O)Nc1ccc(/C=C/c2ncc(C(=O)O)s2)cc1`
## Result -3.54

## Task Field request: cytotoxicity at 10 µM | item: `Cc1nccn1CCC1CCN(C(C)C)CC1`
## Result -20.7

## Task Consider the compound shown here: `CN(C)c1cc(CNC(=O)Nc2nnc(C3CC3)s2)ccn1` What is its recorded cytotoxicity at 10 µM?
## Result -10.8

## Task Which cytotoxicity at 10 µM is listed for `COCCN1CCN(S(C)(=O)=O)Cc2ccc(C)nc21` ?
## Result -5.06

## Task Fill in the blank: the reported cytotoxicity at 10 µM of `Cc1ccc(C(=O)N2[C@@H]3CC[C@H]2CC(=O)N(C)C3)c(=O)[nH]1` is ____.
## Result 4.23

## Task Find the recorded cytotoxicity at 10 µM belonging to `CCN(c1cc(C)cc(C)c1)S(=O)(=O)c1cc(C(=O)O)cs1` and report it.
## Result -1.92

## Task # lookup: cytotoxicity at 10 µM of `COc1ccc2c(c1)c(C(=O)Nc1n[nH]c(C(C)C)n1)cn2C(C)C`
## Result -26.8

## Task Which cytotoxicity at 10 µM is listed for `O=C(NCC1CC1)c1ccc(NC(=O)c2ccco2)cc1` ?
## Result 7.91
